# experiment-summary: chemical genetic growth profiling, strain panel (AID 1159580);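 also: tested at 20 µM; growth read once vehicle control cultures reached saturation at 30 °C; 1 = growth at the plate median or of vehicle wells; lower values mean less growth of the strain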
# experimental-conditions: S. cerevisiae deletion strains, growth OD, locus YKR001C, strain vps1
About 2,000 (36%) of roughly 5,500 compounds were called active. Inconclusive results (about 18%) are left out. Rule as the data show it: active = normalized growth mostly below about 0.91 (no sharp cut-off); inconclusive = no clear call, values can overlap the other calls; inactive = mostly above about 0.92. The list shows a part of the results.
Pick from class 1 for active, class 0 for inactive when you respond.

CN(C)N=Nc1nc[nH]c1C(N)=O
class 0
COC(=O)c1c(C)cc(OC(=O)c2c(C)c(Cl)c(O)c(C=O)c2O)c(C)c1O
class 0
Cc1cccc(Nc2ccncc2S(=O)(=O)NC(=O)NC(C)C)c1
class 0
NC(N)=O
class 0
C[C@]12C=CC(=O)C=C1CCC1C3C[C@@H](O)[C@](O)(C(=O)CO)[C@@]3(C)C[C@H](O)[C@@]12F (stereo not given in full)
class 0
COc1cc(C)c(C(=O)Oc2cc(C)c(C(=O)O)c(O)c2C)c(OC)c1C
class 0

input: For CC(CN(C)C)CN1c2ccccc2Sc2ccccc21 (stereo not given) , what call appears in the results of this test?
output: class 0

input: Could you kindly confirm the outcome this assay logged for C[C@H](CCC(=O)O)[C@H]1CCC2C3C(CC[C@@]21C)[C@@]1(C)CC[C@@H](O)C[C@H]1C[C@H]3O (stereo not given in full) ?
output: class 0

input: Assay result, entry COc1cc([C@H]2Oc3cc([C@H]4Oc5cc(O)cc(O)c5C(=O)[C@@H]4O)ccc3O[C@@H]2CO)ccc1O — outcome?
output: class 0

input: How was COC(=O)c1c(C)cc(OC(=O)c2c(C)cc(O)c(C=O)c2O)c(C)c1O classified in this test?
output: class 1

* * *

# experiment-summary: chemical genetic growth profiling, strain panel (AID 1159580)
# experimental-conditions: S. cerevisiae deletion strains, growth OD, locus YLR113W, strain HOG1, active compounds read low
Among all 5,500 compounds or so, about 2,000 (36%) were called active. Not shown: some 18% with an inconclusive outcome. This is one part of the list.
Consider the following molecules; for each one, report its normalized growth.
Answers are plain numbers.

Past entries and their recorded results:
N#Cc1ccc(NC(=O)Nc2cccc3ccccc23)cc1
0.832
O=C(Nc1ccccc1)c1ccccc1O
0.791
Oc1ccc(N=Nc2ccccn2)c(O)c1
0.153
O=C(Nc1ccc(F)c(Cl)c1)c1ccccc1O
0.669

input: Tell me measured normalized growth for C[C@@H]1O[C@@H](O[C@H]2C[C@@H](O)[C@]3(CO)C4C(CC[C@]3(O)C2)[C@@]2(O)CC[C@H](C3=CC(=O)OC3)[C@@]2(C)C[C@H]4O)[C@H](O)[C@H](O)[C@H]1O (stereo not given in full) please.
output: 1.01

* * *

# experiment-summary: chemical genetic growth profiling, strain panel (AID 1159580);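 also: tested at 20 µM; growth read once vehicle control cultures reached saturation at 30 °C; 1 = growth at the plate median or of vehicle wells; lower values mean less growth of the strain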
# experimental-conditions: S. cerevisiae deletion strains, growth OD, locus YOR231W, strain MKK1, active compounds read low
Out of some 5,500 compounds screened, about 2,000 (36%) were called active. Another 18% or so got no clear call; they are omitted. Some of the results follow.
endpoint-label: normalized growth
Numbers only.

Example entries begin here.
CN(C)C(=O)Nc1ccc(Cl)c(Cl)c1
0.991
CC12CC3CC(C)(C1)CC(N)(C3)C2
0.995
S=P(N1CC1)(N1CC1)N1CC1
1

For each of the items listed, what is its normalized growth?
1. CS(=O)(=O)c1sc(C(=O)Sc2ccc(Cl)cc2)c2c1C=CCC2
2. COc1cc(CC/C(C)=N/O)ccc1OCc1ccc(Cl)cc1Cl
3. CC1=C2[C@H]3OC(=O)[C@@H](C)[C@@H]3CC[C@@]2(C)C=CC1=O
4. COc1cc(OC)c(OC)cc1C=O
5. Oc1ccc(N=Nc2ccccn2)c(O)c1
6. C[C@H]1CC2C([C@@H](O)C[C@@]3(C)C2CC[C@]3(O)C(=O)COC(=O)CCC(=O)O)[C@@]2(C)C=CC(=O)C=C12 (stereo partly specified)
7. COc1cc(CC/C(C)=N\O)ccc1OCc1ccc(Cl)c(Cl)c1

output:
1. 0.353
2. 0.929
3. 0.965
4. 1
5. 0.118
6. 1.06
7. 0.842

input: Read off the recorded normalized growth for Cc1nn(Cc2nnc(SCc3cccc(C(F)(F)F)c3)o2)c(C)c1Br
output: 0.91

* * *

# experiment-summary: chemical genetic growth profiling, strain panel (AID 1159580);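 also: tested at 20 µM; growth read once vehicle control cultures reached saturation at 30 °C; 1 = growth at the plate median or of vehicle wells; lower values mean less growth of the strain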
# experimental-conditions: S. cerevisiae deletion strains, growth OD, locus YMR263W, strain SAP30, active compounds read low
Screen size: about 5,500 compounds; about 2,000 (36%) were called active. Not shown: some 18% with an inconclusive outcome. The list shows a part of the results. Where a SMILES comes first, the peptide text is derived from it.
endpoint-label: normalized growth
Give bare numbers.

Answered cases to consult:
C[C@H](CCC(=O)O)[C@H]1CCC2C3C(CC[C@@]21C)[C@@]1(C)CC[C@@H](O)C[C@H]1C[C@H]3O (some centres undefined)
1.02
CCN(CC)C(C)CN1c2ccccc2Sc2ccccc21 (centres undefined)
0.952
O=c1c2cc(NS(=O)(=O)c3ccc(Cl)cc3)ccc2oc2ncccc12
0.991
C/C(=N/Nc1c(Cl)cc(Cl)cc1Cl)c1cc(F)ccc1OC(=O)c1ccccc1F
0.996
CSC(=NC(=O)c1c(Cl)cccc1Cl)SC
0.931

I have 5 compounds here; please give me normalized growth for each one.
1. Cc1ccc(S(=O)(=O)Nc2ccc(C)c([N+](=O)[O-])c2)cc1
2. O=C1/C(=C/c2ccc(Cl)cc2)COc2ccc(F)cc21
3. N[C@H](CCCCCP(=O)(O)O)C(=O)O
4. O=[N+]([O-])c1cccc(-c2csc(Nc3ccccc3Cl)n2)c1
5. CC(CN1c2ccccc2Sc2cccnc21)N(C)C (centres undefined)

output:
[0.999, 0.942, 1.01, 0.945, 1.03]

Respectfully, I request normalized growth for each entry included below.
1. COC(=O)CCC(=O)O[C@H]1CCC2(C)C(CCC3C2C(=O)[C@@H](O)C2(C)C3CC3OC4(CCC(C)CO4)[C@@H](C)C32)C1 (some centres undefined)
2. CC(=O)O[C@H]1C[C@@H](OC(C)=O)C(C)(C)C2CC(=O)[C@]3(C)C(CC[C@@]4(C)[C@H](c5ccoc5)OC(=O)[C@H]5O[C@]543)[C@]21C (some centres undefined)
3. NCCCCC(N)C(=O)NC(Cc1ccc(O)cc1)C(=O)NC(CCCCN)C(=O)O (stereo not drawn) (H-Lys-Tyr-Lys-OH; configuration not given here)
4. Cc1onc(-c2ccccc2)c1-c1nc(CSc2ccc(C(F)(F)F)cn2)no1
5. CC(CN(C)C)CN1c2ccccc2Sc2ccccc21 (centres undefined)
6. N[C@H](Cc1cc(I)c(Oc2ccc(O)c(I)c2)c(I)c1)C(=O)O

output:
1: 1.03; 2: 1.02; 3: 1.05; 4: 0.971; 5: 0.978; 6: 1

For the 7 compounds below, give their normalized growth values.
1. COc1cc2c(cc1/C=C/C(=O)c1cc(OC)c(OC)cc1OC)OCO2
2. CCCC(CCC)C(=O)O
3. NC(=NCCCC(N)C(=O)O)N[N+](=O)[O-] (centres undefined)
4. O=c1cc(-c2ccccc2)oc2cc(O)c(O)c(O)c12
5. N[C@@H](Cc1c[nH]c2ccc(O)cc12)C(=O)O
6. CC(=O)OCC(=O)[C@@]1(O)[C@H](OC(C)=O)CC2C3CCC4=CC(=O)C=C[C@]4(C)[C@@]3(F)[C@@H](O)C[C@@]21C (some centres undefined)
7. Cc1cc(NS(=O)(=O)c2ccc(NS(=O)(=O)c3cc(C)c(Cl)cc3C)cc2)no1

output:
1: 1; 2: 0.999; 3: 1; 4: 0.207; 5: 0.997; 6: 0.991; 7: 1.02

* * *

# experiment-summary: chemical genetic growth profiling, strain panel (AID 1159580);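 also: tested at 20 µM; growth read once vehicle control cultures reached saturation at 30 °C; 1 = growth at the plate median or of vehicle wells; lower values mean less growth of the strain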
# experimental-conditions: S. cerevisiae deletion strains, growth OD, locus YOR080W, strain dia2, active compounds read low
About 2,000 (36%) of roughly 5,500 compounds were called active. Not shown: some 18% with an inconclusive outcome. This is one part of the list.
Assign normalized growth to each entry below.

NNCCc1ccccc1
1.01 (inactive)
COc1ccc(C(=O)CC(=O)c2ccc(C(C)(C)C)cc2)cc1
1.01 (inactive)
Cc1ncc([N+](=O)[O-])n1CC(C)O (configuration not stated)
0.981 (inactive)
c1ccc2nc(N3CCNCC3)ccc2c1
1 (inactive)
CCN(CCCc1ccccc1)CCCc1ccccc1
0.984 (inactive)

I have 6 compounds here; please give me normalized growth for each one.
1. CSc1ccc2c(c1)N(CCC1CCCCN1C)c1ccccc1S2 (configuration not stated)
2. C[C@H](N)[C@H](O)c1cccc(O)c1
3. C[C@@H]1CC2C3CCC4=CC(=O)C=C[C@]4(C)[C@@]3(F)[C@@H](O)C[C@]2(C)[C@H]1C(=O)CO (some centres not stated)
4. C[C@H](CCC(=O)O)[C@H]1CCC2C3C(CC[C@@]21C)[C@@]1(C)CC[C@@H](O)C[C@H]1C[C@H]3O (some centres not stated)
5. C[C@@H]1CC2C3C[C@H](F)C4=CC(=O)C=C[C@]4(C)[C@@]3(F)[C@@H](O)C[C@]2(C)[C@@]1(O)C(=O)COC(=O)C(C)(C)C (some centres not stated)
6. CN1CCN(C2=Nc3ccccc3Oc3ccc(Cl)cc32)CC1

output:
1: 0.976 (inactive); 2: 1.02 (inactive); 3: 0.991 (inactive); 4: 1.02 (inactive); 5: 0.979 (inactive); 6: 0.969 (inactive)
